This section lists IC50 readings for UniProt Q2M2I8.
measured_parameter: IC50 (nM)

- compound: "CC(C)C[C@](C)(N)COc1ccc(-c2ccnc(C(F)F)n2)nc1C(F)F"
  IC50 [nM]: 0.5

[I] Cc1cc(-c2ccc(OC[C@@](C)(N)CC(C)C)c(Cl)c2)ncn1
[II] COC(=O)Nc1cc(-c2ccc(OC[C@@](C)(N)CC(C)C)c(C(F)(F)F)c2)ncn1
[III] COC(=O)Nc1cc(-c2ccc(OCC(N)(CC(C)C)C(F)(F)F)c(C)n2)ccn1 (centres unmarked)
[IV] Cc1nccc(-c2cnc(OCC(N)(CC(C)C)C(F)(F)F)c(C)c2)n1 (centres unmarked)
input: List these items ordered by IC50, big to small. Would you mind listing the labels in the order requested?
output: IV, III, I, II
(IV: 986 nM, III: 226 nM, I: 12 nM, II: 0.7 nM)

* * *

pIC50: −log10 of the molar value.
Measurement record for GST-Xa-hAAK1 (Homo sapiens (Human), UniProt Q2M2I8); quantity recorded: pIC50.
measured_parameter: pIC50

[P] Cc1cc(-c2ccc(OC[C@@](C)(N)CC(C)C)c(C(F)(F)F)c2)nc(C)n1 [Example 479]
[Q] CC(C)C[C@](C)(N)COc1ccc(-c2ccnc(C(C)C)n2)cc1F [Example 337]
[R] Cc1cc(-c2cc(N)ncn2)ccc1OC[C@@](C)(N)CC(C)C [Example 431]
[S] CCc1cc(-c2ccc(OC[C@@](C)(N)CC(C)C)c(C(F)(F)F)c2)ncn1 [Example 444]
[T] CC(C)C[C@](C)(N)COc1ccc(-c2ccnc(C(F)F)n2)cc1C#N [Example 315]
input: Rank descending by pIC50: all 5 compounds from above. Put the labels in the requested order and write them down.
output: T, R, S, P, Q
(T: 8.82, R: 8.27, S: 6.82, P: 6.27, Q: 6.05)

[a] Cc1nccc(-c2ccc(OC[C@@](C)(N)CC(C)C)c(C#N)c2)n1 [Example 458]
[b] COC(=O)Nc1nccc(-c2cnc(OC[C@@](C)(N)CC(C)C)cc2C)n1 [Example 374]
[c] COC(=O)Nc1nccc(-c2cc(F)c(OC[C@@](C)(N)CC(C)C)cc2F)n1 [Example 508]
[d] Cc1nc(-c2ccnc(N)c2)ccc1OC[C@@](C)(N)CC(C)C [Example 422]
input: Place the items in sequence of falling pIC50. Give me the labels in the order the question wants.
output: a, d, c, b

[I] CC(C)C[C@](C)(N)COc1ccc(-c2ccnc(C(F)F)c2)nc1CF [Example 325]
[II] Cc1nccc(-c2ccc(OC[C@@](C)(N)CC(C)C)c(C)n2)n1 [Example 484]
input: Sorting ascending by pIC50, which comes first: I or II ? Record your answer as the label of the chosen record.
output: II

[P] Cc1nccc(-c2ccc(OC[C@@](C)(N)CC(C)C)c(CF)n2)n1 [Example 279]
[Q] Cc1cc(-c2ccc(OC[C@@](C)(N)CC(C)C)c(CF)n2)ncn1 [Example 387]
[R] Cc1nc(-c2ccnc(N)n2)ccc1OC[C@@](C)(N)CC(C)C [Example 313]
input: Parameters: sort_field (pIC50), sort_dir (desc). # format: label list in the order the request specifies
output: R, P, Q
(R: 8.62, P: 7.64, Q: 6.00)

[P] Cc1cc(-c2cc(C)c(OC[C@@](C)(N)CC(C)C)cn2)ncn1 [Example 450]
[Q] Cc1nccc(-c2cnc(OC[C@@](C)(N)CC(C)C)c(-c3cnco3)c2)n1 [Example 298]
input: Please indicate which entry, P or Q , has the lower recorded pIC50 value. Select an item and report its label.
output: P

[P] CC(C)CC(=O)Nc1cc(-c2ccc(OC[C@@](C)(N)CC(C)C)c(C(F)(F)F)c2)ccn1 [Example 395]
[Q] Cc1cc(-c2ccc(OC[C@@](C)(N)CC(C)C)c(C)c2)ncn1 [Example 384]
input: Just curious, which one has the larger pIC50 reading, P or Q ? Mark your selection by writing its label.
output: P
(P: 9.15, Q: 7.34)

[P] Cc1cc(-c2ccc(OC[C@@](C)(N)CC(C)C)c(C#N)c2)ncn1 [Example 436]
[Q] COc1cc(-c2ccc(OC[C@@](C)(N)CC(C)C)c(C)c2)ccn1 [Example 386]
input: Kindly compare P with Q and tell me which has the lower pIC50 figure. Select an item and report its label.
output: Q
